Assay: Half life in human liver microsomes
Assay type: ADME, Microsome
measured property: half-life

Cc1ccc2oc(N3CCN4CCC3CC4)nc2n1; > 2 h

====

Test: Permeability from apical to basolateral side in dog MDCK cells at 2 uM
Assay type: ADME, cell-based, Canis lupus familiaris
Conditions: read-out: permeability
measured property: Papp A→B at 2 µM (×10⁻⁶ cm/s)

Cc1ccc2oc(N3CCN4CCC3CC4)nc2n1; 18

====

Target: Muscarinic acetylcholine receptor M1 (Homo sapiens, UniProt P11229)
Sequence (P11229 whole entry): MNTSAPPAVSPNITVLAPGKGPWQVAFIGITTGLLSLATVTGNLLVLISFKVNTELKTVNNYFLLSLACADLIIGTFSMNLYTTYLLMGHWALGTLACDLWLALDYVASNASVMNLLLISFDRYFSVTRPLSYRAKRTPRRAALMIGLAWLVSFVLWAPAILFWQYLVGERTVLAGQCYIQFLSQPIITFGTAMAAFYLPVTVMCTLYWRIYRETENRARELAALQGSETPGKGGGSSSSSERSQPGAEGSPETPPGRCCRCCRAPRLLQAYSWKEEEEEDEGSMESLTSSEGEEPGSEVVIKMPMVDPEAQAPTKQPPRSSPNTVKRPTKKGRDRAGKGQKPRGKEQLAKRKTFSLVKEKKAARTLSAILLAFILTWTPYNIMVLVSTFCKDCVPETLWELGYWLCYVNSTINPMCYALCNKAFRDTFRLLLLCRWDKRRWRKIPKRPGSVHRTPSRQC
measured property: Ki

Cc1ccc2oc(N3CCN4CCC3CC4)nc2n1; 14 µM
